System: NCI-H226 lung
PROTOCOL: NCI-60 one-dose screen, 48 h (100 = growth as untreated, 0 = no growth, -100 = all killed)
EXPERIMENTAL_CONTEXT: 10 µM unless noted
This is part of a sample that, as a whole, favours compounds with a hit. Of some 83,000 tested, about 20% had one in any assay.
MEASUREMENT_LABEL: growth (%)
One number for each entry, in %.

Use these answered entries as a reference point.
COMPOUND	MEASUREMENT_LABEL	UNIT	EXPERIMENTAL_RESULT
COc1ccc(-c2cc(C(=O)N3N=C(c4ccc(N)cc4)CC3c3ccc(Cl)cc3)c3cc(OC)ccc3n2)cc1 (stereo unspecified)	growth	%	89.1
CCOC(=O)/C(=C(/C)NCC(C)C)c1cc(O)c(O)c2c(C)cc(=O)[nH]c12	growth	%	71.9
COC(=O)Cn1c2c(c3c(OC)cccc31)C(=O)c1ccccc1-2	growth	%	91.4
Cc1ccc2c(c1)nc(C)n2-c1ncnc2c1CC(C)c1cc(O)ccc1N2C (stereo unspecified)	growth	%	74.1
O=C(C[C@]1(O)C(=O)Nc2ccc(Br)cc21)c1ccco1	growth	%	92.9
CC(=O)Nc1sc2c(c1-c1nc3ccccc3s1)CNC2	growth	%	26

Quick one: give me growth for each item below, same order please.
1. C1CCC(N2CN3c4nonc4N4CN(C5CCCCC5)CN5c6nonc6N(C2)C3C45)CC1 (stereo unspecified)
2. NS(=O)(=O)c1ccc(C(=O)N=Nc2c(O)[nH]c3ccc(Cl)cc23)cc1

1. 96.4
2. 103

Below are some compounds; for each one, tell me its growth.
1. Nc1[nH]nc2nc(-c3ccccc3)n3c4ccccc4nc3c12
2. COc1ccc(C=Nc2c(C(=O)Nc3cccc(Cl)c3C)sc3nc(C)c(C(=O)/C=C/c4ccc(OC)cc4)cc23)cc1

[95.6, 53.8]

Below are 2 compounds. Give each one its growth.
1. ClC(Cl)c1nc(-c2ccccc2)n2nc(-c3ccccc3)cc2n1
2. COc1ccc(Oc2ccc(/C=C/C(=O)c3cc4ccccc4oc3=O)cc2)cc1

1: 86.9; 2: 92.2

Quick batch: growth for everything below.
1. COc1ccc(-c2nc3c(c(-c4ccc(Cl)cc4)nn3-c3ccccc3)c(-c3ccccc3)c2C#N)cc1
2. COC(=O)/C=C1/SC(=NCc2ccccc2)N(CCc2c[nH]c3ccccc23)C1=O
3. CCNC(=O)N1CCc2c(Br)c3c(c(OC)c2C1Cc1ccc(OC)cc1)OCO3 (stereo unspecified)
4. CCOC(=O)c1c(C)nc2ccccc2c1/C=C/c1ccc(F)cc1

97.4
109
70.8
73.9

----------
Tested on: A498 renal
PROTOCOL: NCI-60 one-dose screen, 48 h
EXPERIMENTAL_CONTEXT: 10 µM unless noted
The panel holds about 83,000 compounds, 20% with a hit somewhere; the sample as a whole holds those more often. The source made the active and inactive calls. Rule for the calls: active = growth percent below 10; inactive = the rest.
Tick one outcome: label 1 for active, label 0 for inactive

Check out these entries, answers already filled in.
MOLECULE	CLASS_LABEL
Cc1ccc(S(=O)(=O)OCC#CCOS(=O)(=O)c2ccc(C)cc2)cc1	label 0
CC(O)Cc1c[nH]c(=O)[nH]c1=O (stereo unspecified)	label 0
O=c1cc(-c2ccccc2)nc(SCc2nc3cc(Cl)c(Cl)cc3[nH]2)[nH]1	label 0

Turning to the following molecule.
Per the assay record, what outcome was assigned to CCN(CCNc1ccc(C)c2sc3cc(Cl)ccc3c(=O)c12)CC(C)(C)O ?
label 0
